All values here come from PubChem BioAssay (NCI).

System: 786-0 renal
Experiment: NCI tumour cell line growth inhibition, 48 h
Property: TGI (µM)

• COc1cc([N+](=O)[O-])c(OC)cc1-c1nc2sccn2c1/C=N/N=C(N)N = 49.6
• CCOc1ccc(N/C(=C(/C(Cl)=C(/Cl)NC(C)(C)C)[N+](=O)[O-])n2nnc3ccccc32)cc1 = 36.7
• CCSc1nc(SCC)c2c(-c3ccc(OC)c(OC)c3)c(C#N)c(SCC)nc2n1 = 59.1
• COc1ccccc1CNCCCN1C(=O)c2ccc3c4c(ccc(c24)C1=O)C(=O)N(CCCN)C3=O = 4.89

---

For reference, GI50 measured on NCI-H460 lung:
Property: GI50

* CCSc1nc(SCC)c2c(-c3ccc(OC)c(OC)c3)c(C#N)c(SCC)nc2n1 | 21.8 µM
* Cc1ccc(C(=O)NC2CCC2)cc1-c1ccc(C(=O)NCC2CC2)cc1 | > 25 µM
* COC(=O)Nc1nc2ccc(Oc3cccc(NC(=O)Nc4cc(C(F)(F)F)ccc4F)c3)cc2[nH]1 | 11.4 µM
* O=[N+]([O-])c1ccc(N=Nc2ccc(O)c3ccccc23)cc1 | 3.49 µM
* O=c1c(O)c(-c2ccc(O)c(O)c2)oc2cc(O)cc(O)c12 | 6.73 µM
* CC(C)(c1ccccc1)c1ccc(Oc2ccc(C#N)c(C#N)c2)cc1 | > 100 µM
* CC(=O)[O][Sn]([CH2]c1ccccc1)([CH2]c1ccccc1)[CH2]c1ccccc1 | > 10 µM
* COC(=O)c1cc2ccccc2c2c3c(ccc12)OCO3 | 290 µM
* CCOC(=O)C1CCCCN1C(=O)c1ccc(Nc2cnc3cc(C(F)(F)F)ccc3n2)cc1 (stereo not given) | 13.3 µM
* Nc1c(C(=O)c2cccc(C#CCO)c2)cnn1-c1ccc(F)cc1 | > 25 µM
